Below, each entry is listed with its recorded Analgesic Coefficient.
Test system: inflammatory pain
experiment_notes: Analgesic effect on inflammatory pain (modified Randall and Selitto)
Assay type: in vivo, rats (male, Wister type)
test_settings: 100 mg/Kg oral, 1 hour before carragheenin; pain measured 3 hours after injection
Simply state the number, no unit and no words.

As a guide, the following entries are already answered.
O=C(O)c1ccccc1Nc1c(Cl)cc(Cl)c2ccccc12 [Compound 2]
1.70
O=C(O)c1ccccc1Nc1ccc(Cl)c2ccccc12 [Compound 1, n-(4-chloro-1-naphthyl)anthranilic acid]
1.36
O=C(O)c1ccccc1Nc1cc(F)cc2ccccc12 [Compound 7, N-(3-fluoro-1-naphthyl)anthranilic acid]
1.70
O=C(O)c1ccccc1Nc1cccc(C(F)(F)F)c1 [Compound F, flufenamic acid, reference compound]
1.42
CC(C)Cc1ccc(Nc2ccccc2C(=O)O)c2ccccc12 [4 iso Butyl-]
1.37

Query: If you can, please state the reported Analgesic Coefficient value of O=C(O)c1ccccc1Nc1c(F)ccc2ccccc12 [Compound 4, N-(2-fluoro-1-naphthyl)anthranilic acid] .
Reply: 1.60

Query: Lookup CCCCc1ccc(Nc2ccccc2C(=O)O)c2ccccc12 [4 Butyl-]
Reply: 1.41

Query: # repeat for CCCCc1ccc2ccccc2c1Nc1ccccc1C(=O)O [N-(2-butyl-naphthyl-1-anthranilic acid]
Reply: 1.38

====

Tested on: male mice
experiment_notes: in vivo
test_settings: 1 g/kg oral, 7 days
recorded_endpoint: Number of Dead Mice/Number of Mice Tested

# annotated cases, reported Number of Dead Mice/Number of Mice Tested shown
O=C(O)c1ccccc1Nc1c(Cl)cc(Br)c2ccccc12
0 / 5
O=C(O)c1ccccc1Nc1ccc(Cl)c2ccccc12
0 / 5
O=C(O)c1ccccc1Nc1cccc(C(F)(F)F)c1 [Compound F, flufenamic acid, reference compound]
5 / 5
O=C(O)c1ccccc1Nc1cc(Cl)cc2ccccc12
0 / 5
Cc1cccc(Nc2ccccc2C(=O)O)c1C [Compound M, mefenamic acid, reference compound]
5 / 5

Query: Return reported Number of Dead Mice/Number of Mice Tested; argument: Cc1cc(Nc2ccccc2C(=O)O)c2ccccc2c1
Reply: 0 / 5

Query: What about this molecule? O=C(O)c1ccccc1Nc1c(F)ccc2ccccc12
Reply: 0 / 5

Query: Same again, this time with CCc1ccc(Nc2ccccc2C(=O)O)c2ccccc12
Reply: 0 /10

====

System: inflammatory pain
experiment_notes: Analgesic effect on inflammatory pain (modified Randall and Selitto)
Assay type: in vivo, rats (male, Wister type)
test_settings: 100 mg/Kg oral, 1 hour before carragheenin; pain measured 3 hours after injection
recorded_endpoint: Analgesic Coefficient
Lab note: jot the number down without any unit.

Check out these entries, answers already filled in.
CCCCCCc1ccc2ccccc2c1Nc1ccccc1C(=O)O
1.28
Cc1cc(Nc2ccccc2C(=O)O)c2ccccc2c1C
1.28
O=C(O)c1ccccc1Nc1c(Cl)ccc2ccccc12
1.62
CCc1ccc(Nc2ccccc2C(=O)O)c2ccccc12
1.20
O=C(O)c1ccccc1Nc1c(Cl)cc(Br)c2ccccc12
1.72
O=C(O)c1ccccc1Nc1cc(Cl)cc2ccccc12
1.31

Next up:
Query: Give the measured Analgesic Coefficient of Cc1cccc(Nc2ccccc2C(=O)O)c1C [Compound M, mefenamic acid, reference compound] .
Reply: 1.50

====

Tested on: male mice
experiment_notes: in vivo
test_settings: 2 g/kg oral, 7 days
// reported Number of Dead Mice/Number of Mice Tested for each item listed

These solved cases illustrate the format of a correct answer.
CCc1ccc(Nc2ccccc2C(=O)O)c2ccccc12 [4 Ethyl-]
2 /10
O=C(O)c1ccccc1Nc1cccc(C(F)(F)F)c1 [Compound F, flufenamic acid, reference compound]
5 / 5
O=C(O)c1ccccc1Nc1c(F)ccc2ccccc12 [Compound 4, N-(2-fluoro-1-naphthyl)anthranilic acid]
0 / 5
O=C(O)c1ccccc1Nc1cc(F)cc2ccccc12 [Compound 7, N-(3-fluoro-1-naphthyl)anthranilic acid]
1 / 5
CCCCc1ccc2ccccc2c1Nc1ccccc1C(=O)O [N-(2-butyl-naphthyl-1-anthranilic acid]
0 /10

Query: Fill blank: measured Number of Dead Mice/Number of Mice Tested of the compound O=C(O)c1ccccc1Nc1c(Cl)cc(Cl)c2ccccc12 [Compound 2] is ____.
Reply: 0 / 5

Query: Try Cc1cc(Nc2ccccc2C(=O)O)c2ccccc2c1 [Compound 9, N-(3-methyl-1-naphthyl)anthranilic acid] next.
Reply: 3 / 5

Query: Another compound to check: Cc1cccc(Nc2ccccc2C(=O)O)c1C [Compound M, mefenamic acid, reference compound]
Reply: 5 / 5
